Recorded growth values for a group of molecules are listed next.
- System: A549/ATCC NSCLC
- experiment_summary: NCI-60 one-dose screen, 48 h (100 = growth as untreated, 0 = no growth, -100 = all killed)
- recorded_conditions: 10 µM unless noted
The panel holds about 83,000 compounds, 20% with a hit somewhere; the sample as a whole holds those more often. The source made the active and inactive calls. The calls were made as follows: active = growth percent below 10; inactive = the rest.

The examples below pair each entry with its known result.
molecule=Cc1ccc(S(=O)(=O)NCCNc2nccc(-c3c(-c4ccc(O)cc4)nc4sccn34)n2)cc1 assay_endpoint=growth result="94.1% (inactive)"
molecule=O=S(=O)(NCCNc1nccc(-c2c(-c3cccc(O)c3)nc3sccn23)n1)c1ccc(F)cc1 assay_endpoint=growth result="52% (inactive)"
molecule=O=C(Nc1ccncc1)C(=O)c1cn(S(=O)(=O)c2ccc(Oc3ccccc3)cc2)c2ccccc12 assay_endpoint=growth result="71.8% (inactive)"
molecule=COc1cc(-c2nn(-c3cccc(NC(=O)Nc4ccc(Cl)c(C(F)(F)F)c4)c3)cc2-c2ccncc2)ccc1Cl assay_endpoint=growth result="-10.4% (active)"
molecule=COc1cc(/C=C/C(=O)N2CCN(C(=O)/C=C/c3cc(OC)c(OC)c(OC)c3)CC2)cc(OC)c1OC assay_endpoint=growth result="105% (inactive)"

Task item: Specify measured growth for `COc1cc(-c2nn(-c3cccc(NC(=O)c4ccc(N5CCOCC5)c(C(F)(F)F)c4)c3)cc2-c2ccncc2)ccc1Cl` .
Reply: 3.58% (active)

Task item: Specify measured growth for `Cc1ccc(NS(=O)(=O)c2cc(C)ccc2C)cc1` .
Reply: 33.5% (inactive)

Task item: Specify measured growth for CN(CCCCCl)P(=O)(OCc1ccc([N+](=O)[O-])o1)C(F)(F)C[C@H](NC(=O)CNC(=O)c1ccc(N=[N+]=[N-])cc1)C(=O)NCCc1ccc(O)cc1 (stereo partly drawn) .
Reply: 99% (inactive)

Task item: Specify measured growth for `Cc1cc(C)n(-c2nnc3n2N=C(c2ccc(-c4ccccc4)cc2)CS3)n1` .
Reply: 31.5% (inactive)

Task item: Specify measured growth for NC1=NC(SCc2ccccc2CCl)c2ncn(Cc3ccccc3CCl)c2N1 (stereo not drawn) .
Reply: 80.3% (inactive)

Task item: Specify measured growth for `C=C[C@@H]1C[C@@H]2Cc3cc(F)ccc3N1O2` .
Reply: 95.3% (inactive)

Task item: Specify measured growth for `O=c1ccn(-c2ncnc3nc[nH]c23)cc1` .
Reply: 35.8% (inactive)

Task item: Specify measured growth for `CNc1ccc(Br)c2c1C(=O)c1ccccc1C2=O` .
Reply: 110% (inactive)
